Please provide measured MFI fold change to isotype ctrl for the entries that follow.
- target or system: T1, human CCR8 (human, UniProt P51685 1-355)
- T1 construct: also called hCCR8; CC chemokine receptor 8
- assay protocol: flow cytometry, hCCR8-transfected CHO-K1 cells
Report only the number, with the unit fold understood.

Item: anti-CCR8 mAb 1-14 (antibody, V domains shown, Murine hybridoma mAb) VH: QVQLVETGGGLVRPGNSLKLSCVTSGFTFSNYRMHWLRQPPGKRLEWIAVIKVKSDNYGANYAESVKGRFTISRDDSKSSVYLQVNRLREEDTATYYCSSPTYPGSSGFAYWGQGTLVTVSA VL: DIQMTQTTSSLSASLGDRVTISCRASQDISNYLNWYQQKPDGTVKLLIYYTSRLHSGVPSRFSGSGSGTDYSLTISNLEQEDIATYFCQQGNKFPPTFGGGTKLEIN | MFI fold change to isotype ctrl: 17.6

Noted for anti-CCR8 mAb 1-12 (antibody, V domains shown, Murine hybridoma mAb) VH: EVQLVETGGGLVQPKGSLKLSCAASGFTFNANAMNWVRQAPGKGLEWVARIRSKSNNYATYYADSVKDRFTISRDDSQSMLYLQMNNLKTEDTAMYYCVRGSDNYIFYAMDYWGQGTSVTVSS VL: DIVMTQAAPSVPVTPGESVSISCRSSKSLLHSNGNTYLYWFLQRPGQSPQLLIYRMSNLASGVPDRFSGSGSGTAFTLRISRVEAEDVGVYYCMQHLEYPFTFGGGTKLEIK : its MFI fold change to isotype ctrl reads 6.11

binder anti-CCR8 mAb 1-13 (antibody, V domains shown, Murine hybridoma mAb) VH: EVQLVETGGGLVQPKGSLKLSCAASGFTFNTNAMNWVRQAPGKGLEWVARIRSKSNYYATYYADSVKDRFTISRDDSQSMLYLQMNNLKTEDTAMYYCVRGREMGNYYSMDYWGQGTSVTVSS VL: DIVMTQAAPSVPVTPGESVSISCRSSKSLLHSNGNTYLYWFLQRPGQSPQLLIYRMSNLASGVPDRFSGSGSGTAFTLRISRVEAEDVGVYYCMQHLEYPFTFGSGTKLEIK , MFI fold change to isotype ctrl observed: 5.63

Given item anti-CCR8 mAb 1-4 (antibody, V domains shown, Murine hybridoma mAb) VH: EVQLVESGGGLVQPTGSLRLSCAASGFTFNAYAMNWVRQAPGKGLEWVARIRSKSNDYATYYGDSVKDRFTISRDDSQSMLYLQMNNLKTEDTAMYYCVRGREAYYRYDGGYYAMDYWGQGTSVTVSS VL: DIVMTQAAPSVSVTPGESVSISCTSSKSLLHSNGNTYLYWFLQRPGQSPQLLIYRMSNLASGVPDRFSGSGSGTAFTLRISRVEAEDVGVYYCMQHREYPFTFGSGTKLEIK , the value recorded as its MFI fold change to isotype ctrl is 5.06

Measured MFI fold change to isotype ctrl of anti-CCR8 mAb 1-18 (antibody, V domains shown, Murine hybridoma mAb) VH: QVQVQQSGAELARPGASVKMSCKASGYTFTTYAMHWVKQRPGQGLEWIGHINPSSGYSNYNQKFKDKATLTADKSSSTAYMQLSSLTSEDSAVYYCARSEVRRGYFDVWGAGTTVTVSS VL: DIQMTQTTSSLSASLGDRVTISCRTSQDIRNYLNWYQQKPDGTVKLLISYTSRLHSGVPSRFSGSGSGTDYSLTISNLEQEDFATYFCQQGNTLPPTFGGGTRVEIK : 9.2

Origin of values: patent US20260132208A1
